// data source = patent US10058550B2

Parameter: pEC50. Scope: all listed entries.
testedOn: human APJ receptor (Homo sapiens (Human), UniProt P35414)
Sequence (P35414 whole entry): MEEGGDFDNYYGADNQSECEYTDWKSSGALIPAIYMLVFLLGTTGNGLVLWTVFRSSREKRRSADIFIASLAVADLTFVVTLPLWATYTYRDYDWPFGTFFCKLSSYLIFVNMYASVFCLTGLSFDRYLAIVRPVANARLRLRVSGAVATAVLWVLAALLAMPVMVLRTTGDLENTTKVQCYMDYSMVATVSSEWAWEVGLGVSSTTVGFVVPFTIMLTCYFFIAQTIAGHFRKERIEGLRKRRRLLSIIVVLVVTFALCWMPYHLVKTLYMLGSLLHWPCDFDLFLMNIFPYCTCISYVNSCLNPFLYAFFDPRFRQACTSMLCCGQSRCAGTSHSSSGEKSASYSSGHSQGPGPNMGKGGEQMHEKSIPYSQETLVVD
assayDetails: biochemical
reportedConditions: read-out: Activity hAPJ SPA EC50 IP
pEC50: −log10 of the molar value.
endpoint: pEC50

1. COc1cccc(OC)c1-n1c(NS(=O)(=O)[C@H](C)[C@@H](OC)c2ncc(Cl)cn2)nnc1-c1cccnc1 [Example 592.0]    8.00
2. COc1cccc(OC)c1-n1c(NS(=O)(=O)[C@H](C)[C@H](OC(C)C)c2ccc(Cl)cn2)nnc1-c1cncc(C)c1 (single isomer, unassigned) [Example 745.0]    9.40
3. COc1cccc(OC)c1-n1c(NS(=O)(=O)[C@H](C)[C@H](OC(C)C)c2cn3ccccc3n2)nnc1-c1cccnc1 (stereo in doubt) [Example 828.0]    6.32

* * *

testedOn: human APJ receptor (Homo sapiens (Human))
assayDetails: biochemical
reportedConditions: read-out: Activity hAPJ SPA EC50 IP
endpoint: EC50

1. COc1cccc(OC)c1-n1c(NS(=O)(=O)[C@@H](C)[C@H](C)c2ncc(F)cn2)nnc1-c1cccc(C)n1 [Example 453.0]    0.6 nM
2. COc1cccc(OC)c1-n1c(NS(=O)(=O)[C@@H](C)[C@H](O)c2nc(C)c(C)s2)nnc1-c1cncc(C)c1 (single isomer, unassigned) [Example 292.0]    0.9 nM
3. Cc1cnc([C@@H](C)[C@H](C)S(=O)(=O)Nc2nnc(-c3cncc(C)c3)n2-c2c(F)cccc2F)nc1 (single isomer, unassigned)    1.7 nM
4. CNc1cccc(-c2nnc(NS(=O)(=O)[C@@H](C)[C@H](C)c3ncc(C)cn3)n2-c2c(F)cccc2F)n1    0.63 nM
5. Cc1cncc(-c2nnc(NS(=O)(=O)[C@@H](C)[C@H](C)c3ncc(Cl)cn3)n2-c2c(F)cccc2F)c1    1.1 nM

* * *

testedOn: human APJ receptor (Homo sapiens (Human))
assayDetails: biochemical
reportedConditions: read-out: Activity hAPJ SPA EC50 IP
Class membership depends on EC50 alone; the intervals are lower = under 5 nM, middle = from 5 nM up to 40 nM, upper = 40 nM and over

1. COc1cccc(OC)c1-n1c(NS(=O)(=O)[C@@H](C)[C@H](OC)C2CCC2)nnc1-c1cncc(C)c1 (single isomer, unassigned)    upper
2. COc1cccc(OC)c1-n1c(NS(=O)(=O)[C@@H]2C[C@H](OC)CN(c3ncc(F)cn3)C2)nnc1-c1cccnc1 (stereo in doubt) [Example 818.0]    upper
3. COc1cccc(-c2nnc(NS(=O)(=O)[C@@H](C)[C@@H](O)C3CC(F)(F)C3)n2-c2c(OC)cccc2OC)n1 (single isomer, unassigned) [Example 723.0]    lower
4. COc1cccc(OC)c1-n1c(NS(=O)(=O)[C@H](C)[C@H](O)c2ncc(F)cn2)nnc1-c1cncc(C)c1 (single isomer, unassigned)    upper
5. CCO[C@H](c1ncc(F)cn1)[C@H](C)S(=O)(=O)Nc1nnc(-c2cccc(OC)n2)n1-c1ccccc1    middle
6. COc1cccc(OC)c1-n1c(NS(=O)(=O)[C@@H](C)[C@@H](O)c2ccc(C#N)cc2F)nnc1-c1cncc(C)c1 (single isomer, unassigned) [Example 343.0]    upper
7. COc1cccc(OC)c1-n1c(NS(=O)(=O)[C@@H](C)[C@H](OC)c2ccc(F)cn2)nnc1-c1cncc(C)c1 (single isomer, unassigned) [Example 352.0]    lower
8. COc1cccc(OC)c1-n1c(NS(=O)(=O)[C@H](C)[C@H](OC(C)C)c2cnc(C)cn2)nnc1-c1cncc(C)c1 (single isomer, unassigned) [Example 747.0]    middle
9. CO[C@H](c1ncc(C)cn1)[C@H](C)S(=O)(=O)Nc1nnc(-c2cccnc2)n1-c1c(OC(F)F)cccc1OC(F)F    lower
